The reported measurements were obtained from patent US11559510B2.

test_summary: Plasma pharmacokinetic studies of idronoxil in rats (rectal in cocoa butter vs intestinal in lipid emulsion)
Assay type: in vivo, Male Sprague-Dawley rats
study_conditions: male, Sprague-Dawley, rat, plasma, other: rectal, 10 mg/kg, Rectal delivery, cocoa butter, 10 mg/kg, 3 hr; read-out: Idronoxil Plasma Concentration Mean
readout_type: concentration at 3 h (ng/mL)
API: value field is a number in ng/mL; no unit string.

Per the records, this molecule ( "Oc1ccc(C2=Cc3ccc(O)cc3OC2)cc1" ) has concentration at 3 h equal to 37.3

----------
test_summary: Plasma pharmacokinetic studies of idronoxil in rats (rectal in cocoa butter vs intestinal in lipid emulsion)
Format: in vivo, Male Sprague-Dawley rats
study_conditions: male, Sprague-Dawley, rat, plasma, other: intraduodenal infusion, 10 mg/kg, Intestinal delivery (intraduodenal infusion), lipid emulsion, 10 mg/kg, 1 hr; read-out: Idronoxil Plasma Concentration Mean
Description: The objective of this study in rodents is to determine the plasma pharmacokinetics of idronoxil after rectal delivery and intestinal delivery in lipids (cocoa butter or emulsion). […] Sample analysis: Plasma concentrations of idronoxil were measured by the HMST-lab using a validated HPLC-MS/MS method. […] MS analysis was conducted in positive mode electrospray ionisation and quantitation of the analytes performed in MRM mode. […]
readout_type: concentration at 1 h
Record the result as a number with its unit.

Per the records, this compound ( "Oc1ccc(C2=Cc3ccc(O)cc3OC2)cc1" ) has concentration at 1 h equal to 118 ng/mL
